system: ASPC-1 tumor-bearing mice; assay: Biodistribution of radionuclide labeled complexes in ASPC-1 tumor-bearing mice; assay type: in vivo, BALB/c nude mice; settings: Intestine, 1 h
OBSERVABLE: % ID/g (1 h) Intestine

1. COc1cccc(OC)c1-c1cc(C(=O)NC2(C(=O)O)C3CC4CC(C3)CC2C4)nn1-c1ccc(C(=O)N(C)CCCN(C)CCCN(C)C(=O)CN2CCN(CC(=O)[O-])CCN(CC(=O)[O-])CCN(CC(=O)[O-])CC2)cc1C(C)C.[177Lu+3] (stereo not shown) [^177Lu-C-2, reference compound]	1.98 ± 0.63 % ID/g
2. COc1cccc(OC)c1-c1cc(C(=O)NC2(C(=O)O)C3CC4CC(C3)CC2C4)nn1-c1ccc(OCCCN(C)CCCN(C)C(=O)CN2CCN(CC(=O)[O-])CCN(CC(=O)[O-])CCN(CC(=O)[O-])CC2)cc1C(C)C.[177Lu+3] (stereo not shown) [^177Lu-I-7]	2.53 ± 0.58 % ID/g
3. COc1cccc(OC)c1-c1cc(C(=O)NC2(C(=O)O)C3CC4CC(C3)CC2C4)nn1-c1ccc(N(CCCN(C)C)C(=O)COCCOCCNC(=O)CN2CCN(CC(=O)[O-])CCN(CC(=O)[O-])CCN(CC(=O)[O-])CC2)cc1C(C)C.[177Lu+3] (stereo not shown) [^177Lu-I-6]	0.77 ± 0.31 % ID/g

Query molecule follows.
% ID/g (1 h) Intestine for COc1cccc(OC)c1-c1cc(C(=O)NC2(C(=O)O)C3CC4CC(C3)CC2C4)nn1-c1ccc(C(=O)N(CCCNC(=O)CN2CCN(CC(=O)[O-])CCN(CC(=O)[O-])CCN(CC(=O)[O-])CC2)CCCN(C)C)cc1C(C)C.[177Lu+3] (stereo not shown) [^177Lu-C-5, reference compound] ?
1.28 ± 0.11 % ID/g

---

tested on: ASPC-1 tumor-bearing mice; assay: Biodistribution of radionuclide labeled complexes in ASPC-1 tumor-bearing mice; format: in vivo, BALB/c nude mice; details: Muscle, 4 h
Parameter class (string): assigned from measured % ID/g (4 h) Muscle. Ranges: lower bin (below 0.1 % ID/g), middle bin (0.1 % ID/g to below 0.5 % ID/g), upper bin (0.5 % ID/g or more)

Band for the recorded % ID/g (4 h) Muscle of COc1cccc(OC)c1-c1cc(C(=O)NC2(C(=O)O)C3CC4CC(C3)CC2C4)nn1-c1ccc(C(=O)N(CCCNC(=O)CN2CCN(CC(=O)[O-])CCN(CC(=O)[O-])CCN(CC(=O)[O-])CC2)CCCN(C)C)cc1C(C)C.[177Lu+3] (stereo not drawn) [^177Lu-C-5, reference compound] ?
lower bin

Returns: class label. Input: COc1cccc(OC)c1-c1cc(C(=O)NC2(C(=O)O)C3CC4CC(C3)CC2C4)nn1-c1ccc(N(CCCN(C)C)C(=O)COCCOCCNC(=O)CN2CCN(CC(=O)[O-])CCN(CC(=O)[O-])CCN(CC(=O)[O-])CC2)cc1C(C)C.[177Lu+3] (stereo not drawn) [^177Lu-I-6]
lower bin

Just checking, what class would you give COc1cccc(OC)c1-c1cc(C(=O)NC2(C(=O)O)C3CC4CC(C3)CC2C4)nn1-c1ccc(NCCCN(C)CCCNC(=O)CN2CCN(CC(=O)[O-])CCN(CC(=O)[O-])CCN(CC(=O)[O-])CC2)cc1C(C)C.[177Lu+3] (stereo not drawn) [^177Lu-I-2] here?
upper bin

Textbook exercise: identify the category of the compound given here, COc1cccc(OC)c1-c1cc(C(=O)NC2(C(=O)O)C3CC4CC(C3)CC2C4)nn1-c1ccc(N(C)CCCN(C)CCCN(C)C(=O)CN2CCN(CC(=O)[O-])CCN(CC(=O)[O-])CCN(CC(=O)[O-])CC2)cc1C(C)C.[177Lu+3] (stereo not drawn) [^177Lu-I-1] , according to its measured value.
middle bin

Lab log: COc1cccc(OC)c1-c1cc(C(=O)NC2(C(=O)O)C3CC4CC(C3)CC2C4)nn1-c1ccc(SCCCN(C)CCCN(C)C(=O)CN2CCN(CC(=O)[O-])CCN(CC(=O)[O-])CCN(CC(=O)[O-])CC2)cc1C(C)C.[177Lu+3] (stereo not drawn) [^177Lu-I-8] — assign % ID/g (4 h) Muscle category
upper bin

Bin this entry: COc1cccc(OC)c1-c1cc(C(=O)NC2(C(=O)O)C3CC4CC(C3)CC2C4)nn1-c1ccc(NC(=O)CCCN(C)CCCN(C)C(=O)CN2CCN(CC(=O)[O-])CCN(CC(=O)[O-])CCN(CC(=O)[O-])CC2)cc1C(C)C.[177Lu+3] (stereo not drawn) [^177Lu-I-5]
upper bin

---

Below: a set of entries, each annotated with reported % ID/g (1 h) Stomach.
tested on: ASPC-1 tumor-bearing mice; assay: Biodistribution of radionuclide labeled complexes in ASPC-1 tumor-bearing mice; assay type: in vivo, BALB/c nude mice; conditions: Stomach, 1 h
The response must be a number in % ID/g with no trailing unit.

1) COc1cccc(OC)c1-c1cc(C(=O)NC2(C(=O)O)C3CC4CC(C3)CC2C4)nn1-c1ccc(N(CCCN(C)C)C(=O)COCCOCCNC(=O)CN2CCN(CC(=O)[O-])CCN(CC(=O)[O-])CCN(CC(=O)[O-])CC2)cc1C(C)C.[177Lu+3] (stereo not shown) [^177Lu-I-6]	0.27

Given the molecule COc1cccc(OC)c1-c1cc(C(=O)NC2(C(=O)O)C3CC4CC(C3)CC2C4)nn1-c1ccc(C(=O)N(C)CCCN(C)CCCN(C)C(=O)CN2CCN(CC(=O)[O-])CCN(CC(=O)[O-])CCN(CC(=O)[O-])CC2)cc1C(C)C.[177Lu+3] (stereo not shown) [^177Lu-C-2, reference compound] , what is its reported % ID/g (1 h) Stomach?
1.35

Given the entry COc1cccc(OC)c1-c1cc(C(=O)NC2(C(=O)O)C3CC4CC(C3)CC2C4)nn1-c1ccc(C(=O)N(CCCNC(=O)CN2CCN(CC(=O)[O-])CCN(CC(=O)[O-])CCN(CC(=O)[O-])CC2)CCCN(C)C)cc1C(C)C.[177Lu+3] (stereo not shown) [^177Lu-C-5, reference compound] , report its measured % ID/g (1 h) Stomach.
0.55

Value lookup for % ID/g (1 h) Stomach; key = COc1cccc(OC)c1-c1cc(C(=O)NC2(C(=O)O)C3CC4CC(C3)CC2C4)nn1-c1ccc(OCCCN(C)CCCN(C)C(=O)CN2CCN(CC(=O)[O-])CCN(CC(=O)[O-])CCN(CC(=O)[O-])CC2)cc1C(C)C.[177Lu+3] (stereo not shown) [^177Lu-I-7]
1.01

---

system: ASPC-1 tumor-bearing mice; assay: Biodistribution of radionuclide labeled complexes in ASPC-1 tumor-bearing mice; format: in vivo, BALB/c nude mice; conditions: Pancreas, 24 h
The reader will find reported % ID/g (24 h) Pancreas values listed item by item below.
Value expressed in % ID/g; do not type the unit.

Recorded results for 2 molecules are shown here.
1. COc1cccc(OC)c1-c1cc(C(=O)NC2(C(=O)O)C3CC4CC(C3)CC2C4)nn1-c1ccc(N(C)CCCN(C)CCCN(C)C(=O)CN2CCN(CC(=O)[O-])CCN(CC(=O)[O-])CCN(CC(=O)[O-])CC2)cc1C(C)C.[177Lu+3] (stereo not shown) [^177Lu-I-1]	0.18
2. COc1cccc(OC)c1-c1cc(C(=O)NC2(C(=O)O)C3CC4CC(C3)CC2C4)nn1-c1ccc(SCCCN(C)CCCN(C)C(=O)CN2CCN(CC(=O)[O-])CCN(CC(=O)[O-])CCN(CC(=O)[O-])CC2)cc1C(C)C.[177Lu+3] (stereo not shown) [^177Lu-I-8]	0.6

Entry COc1cccc(OC)c1-c1cc(C(=O)NC2(C(=O)O)C3CC4CC(C3)CC2C4)nn1-c1ccc(NC(=O)CCCN(C)CCCN(C)C(=O)CN2CCN(CC(=O)[O-])CCN(CC(=O)[O-])CCN(CC(=O)[O-])CC2)cc1C(C)C.[177Lu+3] (stereo not shown) [^177Lu-I-5] : reported % ID/g (24 h) Pancreas = ?
0.3

For the molecule COc1cccc(OC)c1-c1cc(C(=O)NC2(C(=O)O)C3CC4CC(C3)CC2C4)nn1-c1ccc(NCCOCCOCCNC(=O)CN2CCN(CC(=O)[O-])CCN(CC(=O)[O-])CCN(CC(=O)[O-])CC2)cc1C(C)C.[177Lu+3] (stereo not shown) [^177Lu-I-10] , what % ID/g (24 h) Pancreas is on record?
0.04

Find the recorded % ID/g (24 h) Pancreas belonging to COc1cccc(OC)c1-c1cc(C(=O)NC2(C(=O)O)C3CC4CC(C3)CC2C4)nn1-c1ccc(C(=O)N(C)CCCN(C)CCCN(C)C(=O)CN2CCN(CC(=O)[O-])CCN(CC(=O)[O-])CCN(CC(=O)[O-])CC2)cc1C(C)C.[177Lu+3] (stereo not shown) [^177Lu-C-2, reference compound] and report it.
0.1

Reported % ID/g (24 h) Pancreas for COc1cccc(OC)c1-c1cc(C(=O)NC2(C(=O)O)C3CC4CC(C3)CC2C4)nn1-c1ccc(NCCCN(C)CCCNC(=O)CN2CCN(CC(=O)[O-])CCN(CC(=O)[O-])CCN(CC(=O)[O-])CC2)cc1C(C)C.[177Lu+3] (stereo not shown) [^177Lu-I-2] : what is it?
0.32

Field request: % ID/g (24 h) Pancreas | item: COc1cccc(OC)c1-c1cc(C(=O)NC2(C(=O)O)C3CC4CC(C3)CC2C4)nn1-c1ccc(OCCCN(C)CCCN(C)C(=O)CN2CCN(CC(=O)[O-])CCN(CC(=O)[O-])CCN(CC(=O)[O-])CC2)cc1C(C)C.[177Lu+3] (stereo not shown) [^177Lu-I-7]
0.29
